Target: T1, IL10Rα/IL2Rγ receptor (human) (UniProt Q13651)
T1 sequence (looked up) 1: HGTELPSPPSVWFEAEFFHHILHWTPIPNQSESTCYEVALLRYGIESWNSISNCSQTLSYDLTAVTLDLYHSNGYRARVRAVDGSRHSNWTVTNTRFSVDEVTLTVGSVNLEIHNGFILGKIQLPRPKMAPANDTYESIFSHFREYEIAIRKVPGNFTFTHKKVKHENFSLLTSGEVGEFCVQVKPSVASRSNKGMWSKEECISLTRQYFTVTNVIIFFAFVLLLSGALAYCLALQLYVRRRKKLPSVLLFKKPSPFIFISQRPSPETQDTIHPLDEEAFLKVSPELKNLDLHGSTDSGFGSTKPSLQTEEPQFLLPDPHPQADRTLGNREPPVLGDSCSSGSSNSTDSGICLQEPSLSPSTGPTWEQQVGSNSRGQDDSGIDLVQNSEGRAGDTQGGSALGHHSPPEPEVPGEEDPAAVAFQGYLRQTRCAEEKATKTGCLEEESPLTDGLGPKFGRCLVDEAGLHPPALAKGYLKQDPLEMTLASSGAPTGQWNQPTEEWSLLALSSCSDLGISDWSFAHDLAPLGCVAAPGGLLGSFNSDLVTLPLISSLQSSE
T1 sequence (looked up) 2: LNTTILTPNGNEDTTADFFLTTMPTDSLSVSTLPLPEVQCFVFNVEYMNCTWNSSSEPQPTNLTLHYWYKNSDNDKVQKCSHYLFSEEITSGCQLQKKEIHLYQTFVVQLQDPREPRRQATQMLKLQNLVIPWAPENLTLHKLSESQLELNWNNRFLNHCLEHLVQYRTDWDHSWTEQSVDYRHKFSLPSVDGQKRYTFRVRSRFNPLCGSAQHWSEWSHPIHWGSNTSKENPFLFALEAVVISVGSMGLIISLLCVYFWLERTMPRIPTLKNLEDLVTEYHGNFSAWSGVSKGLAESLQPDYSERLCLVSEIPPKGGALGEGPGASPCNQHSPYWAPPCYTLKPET
Assay: cell-based or functional assay
READOUT_LABEL: IFNγ secretion, CD8 T cells, at 0.1 µM (pg/mL)
Numbers only, in pg/mL.

**Q:** Returns the measured IFNγ secretion, CD8 T cells, at 0.1 µM for the input binder. Input: hIL10Ra_VHH14 - hIL2Rg_VHH19, No linker, tag his (bispecific antibody, not shown: small tags and cut ends) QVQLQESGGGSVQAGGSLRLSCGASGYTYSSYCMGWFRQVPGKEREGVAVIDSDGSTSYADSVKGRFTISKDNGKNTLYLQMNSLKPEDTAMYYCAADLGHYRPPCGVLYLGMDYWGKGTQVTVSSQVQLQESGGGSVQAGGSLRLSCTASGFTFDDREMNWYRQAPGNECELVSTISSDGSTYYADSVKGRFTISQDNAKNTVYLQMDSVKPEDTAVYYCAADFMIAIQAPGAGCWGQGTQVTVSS
**A:** 111000
